# Experimental target: endogenous cellular BACE2 in the Ins1e rat cell line (Rattus norvegicus (Rat), UniProt Q6IE75)
# Sequence (Q6IE75 63-514): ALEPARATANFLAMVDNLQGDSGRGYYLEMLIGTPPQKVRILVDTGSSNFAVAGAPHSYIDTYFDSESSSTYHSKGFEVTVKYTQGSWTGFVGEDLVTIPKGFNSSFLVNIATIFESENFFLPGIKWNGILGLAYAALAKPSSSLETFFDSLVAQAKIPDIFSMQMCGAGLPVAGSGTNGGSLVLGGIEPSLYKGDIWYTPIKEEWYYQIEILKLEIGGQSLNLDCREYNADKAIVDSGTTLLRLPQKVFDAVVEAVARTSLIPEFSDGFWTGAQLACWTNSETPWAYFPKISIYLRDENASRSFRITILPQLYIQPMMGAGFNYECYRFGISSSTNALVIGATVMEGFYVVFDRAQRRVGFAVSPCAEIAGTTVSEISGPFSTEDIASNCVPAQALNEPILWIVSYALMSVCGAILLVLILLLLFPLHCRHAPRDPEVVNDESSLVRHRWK
# Assay notes: Assay for BACE inhibition by measuring cellular TMEM27 cleavage (ELISA of shed hTMEM27 from INS-TMEM27 cells)
# Assay context: assay a): cellular TMEM27 cleavage, INS-TMEM27 cells (superscript a)
Measure name: IC50 (nM)

>>> quantitative_result("COc1ccc(C(F)(F)F)cc1Nc1ccc(F)c([C@@]2(C)N=C(N)N(C)C(=O)C2(C)C)c1")
9
>>> quantitative_result("CN1C(=O)C(C)(C)[C@@](C)(c2cc(NC3CCN(Cc4ccccc4)CC3)ccc2F)N=C1N")
211
>>> quantitative_result("CN1C(=O)C(C)(C)[C@@](C)(c2cc(NC(=O)C3(C(F)(F)F)CC3)ccc2F)N=C1N")
11
>>> quantitative_result("CN1C(=O)C(C)(C)[C@@](C)(c2cc(NC(=O)[C@](C)(O)C(F)(F)F)ccc2F)N=C1N")
44
>>> quantitative_result("C[C@@H]1CC(Nc2ccc(F)c([C@@]3(C)N=C(N)N(C)C(=O)C3(C)C)c2)C[C@H](C)O1 (stereo partly shown)")
123
>>> quantitative_result("CN1C(=O)C(C)(C)[C@@](C)(c2cc(NC(=O)CC3CCCC3)ccc2F)N=C1N")
274
>>> quantitative_result("CN1C(=O)C(C)(C)[C@@](C)(c2cc(NC3CS(=O)(=O)c4ccccc43)ccc2F)N=C1N (stereo partly shown)")
3

----------
# Experimental target: endogenous cellular BACE2 in the Ins1e rat cell line (Rattus norvegicus (Rat), UniProt Q6IE75)
# Assay notes: Assay for BACE inhibition by measuring cellular TMEM27 cleavage (ELISA of shed hTMEM27 from INS-TMEM27 cells)
# Assay context: assay a): cellular TMEM27 cleavage, INS-TMEM27 cells (superscript a)
# Procedure: a) Assay for BACE Inhibition by Measuring Cellular TMEM27 Cleavage: […] An ELISA assay (using a pair of mouse anti-human-TMEM27 antibodies, raised against the extracellular domain of TMEM27) is used for detection of TMEM27 in the culture medium. An EC50 for BACE2 inhibition is calculated using the ELISA readout for each inhibitor concentration with standard curve-fitting software such as XLFit for the Excel spreadsheet program.
Decide using IC50 alone. Strictly below 30 nM: Criterion met. Equal to or above 30 nM: Criterion not met.

>>> assigned_class("CN1C(=O)C(C)(C)[C@@](C)(c2cc(NCC3(C)COC3)ccc2F)N=C1N")
"Criterion met"
>>> assigned_class("CC(Cc1ccc(F)cc1)Nc1ccc(F)c([C@@]2(C)N=C(N)N(C)C(=O)C2(C)C)c1 (some centres unmarked)")
"Criterion not met"
>>> assigned_class("COc1ccc(Nc2ccc(F)c([C@@]3(C)N=C(N)N(C)C(=O)C3(C)C)c2)c(OC)c1")
"Criterion not met"
>>> assigned_class("CN1C(=O)C(C)(C)[C@@](C)(c2cc(NCc3nn(C(F)F)cc3Cl)ccc2F)N=C1N")
"Criterion met"
>>> assigned_class("Cc1cc(Nc2ccc(F)c([C@@]3(C)N=C(N)N(C)C(=O)C3(C)C)c2)ccc1C#N")
"Criterion not met"
>>> assigned_class("CN1C(=O)C(C)(C)[C@@](C)(c2cc(Nc3ccc(C#N)cc3F)ccc2F)N=C1N")
"Criterion met"
>>> assigned_class("COc1cc(C(F)(F)F)ccc1Nc1ccc(F)c([C@@]2(C)N=C(N)N(C)C(=O)C2(C)C)c1")
"Criterion not met"
>>> assigned_class("CC(Nc1ccc(F)c([C@@]2(C)N=C(N)N(C)C(=O)C2(C)C)c1)c1ccn[nH]1 (some centres unmarked)")
"Criterion not met"
>>> assigned_class("CN1C(=O)C(C)(C)[C@@](C)(c2cc(NC3CCCOC3)ccc2F)N=C1N (some centres unmarked)")
"Criterion met"
>>> assigned_class("Cc1nc(CNc2ccc(F)c([C@@]3(C)N=C(N)N(C)C(=O)C3(C)C)c2)co1")
"Criterion not met"
>>> assigned_class("CN1C(=O)C(C)(C)[C@@](C)(c2cc(NCc3cc[nH]n3)ccc2F)N=C1N")
"Criterion not met"
>>> assigned_class("CN1C(=O)C(C)(C)[C@@](C)(c2cc(NCC3CC3)ccc2F)N=C1N")
"Criterion met"
>>> assigned_class("CN1C(=O)C(C)(C)[C@@](C)(c2cc(NC3CCC(c4ccccc4)C3)ccc2F)N=C1N (some centres unmarked)")
"Criterion met"
>>> assigned_class("CN1C(=O)C(C)(C)[C@@](C)(c2cc(NC(=O)CC3CCC3)ccc2F)N=C1N")
"Criterion not met"
>>> assigned_class("CN1C(=O)C(C)(C)[C@@](C)(c2cc(Nc3ccnn3Cc3ccccc3)ccc2F)N=C1N")
"Criterion met"
>>> assigned_class("CN1C(=O)C(C)(C)[C@@](C)(c2cc(NC3CCCC3)ccc2F)N=C1N")
"Criterion met"
>>> assigned_class("CN1C(=O)C(C)(C)[C@@](C)(c2cc(NC(=O)CC3CC3)ccc2F)N=C1N")
"Criterion not met"
>>> assigned_class("CC(Nc1ccc(F)c([C@@]2(C)N=C(N)N(C)C(=O)C2(C)C)c1)c1ccccn1 (some centres unmarked)")
"Criterion met"
>>> assigned_class("CN1C(=O)C(C)(C)[C@@](C)(c2cc(NC(=O)C(C)(O)c3ccccc3)ccc2F)N=C1N (some centres unmarked)")
"Criterion not met"
>>> assigned_class("CN1C(=O)C(C)(C)[C@@](C)(c2cc(NCC3CC3(F)F)ccc2F)N=C1N (some centres unmarked)")
"Criterion met"
>>> assigned_class("CN1C(=O)C(C)(C)[C@@](C)(c2cc(NC(=O)[C@@](C)(O)C(F)(F)F)ccc2F)N=C1N")
"Criterion not met"
>>> assigned_class("CN1C(=O)C(C)(C)[C@@](C)(c2cc(Nc3ccc(F)cc3F)ccc2F)N=C1N")
"Criterion not met"
>>> assigned_class("CN1C(=O)C(C)(C)[C@@](C)(c2cc(NC3CCc4cc(Cl)cnc43)ccc2F)N=C1N (some centres unmarked)")
"Criterion met"
>>> assigned_class("COc1ccc(C(=O)O)cc1Nc1ccc(F)c([C@@]2(C)N=C(N)N(C)C(=O)C2(C)C)c1")
"Criterion not met"
>>> assigned_class("Cc1cc(Nc2ccc(F)c([C@@]3(C)N=C(N)N(C)C(=O)C3(C)C)c2)n(C)n1")
"Criterion not met"
>>> assigned_class("COc1cccc2c1CCC2Nc1ccc(F)c([C@@]2(C)N=C(N)N(C)C(=O)C2(C)C)c1 (some centres unmarked)")
"Criterion not met"
